Test system: OVCAR-5
Assay: NCI tumour cell line growth inhibition, 48 h
The source made the active and inactive calls. No stated cut-off is given here; in the data, active = GI50 up to about 1.1 µM and inactive = higher.
Overview of recorded GI50 for various molecules

CSc1nc(CO)c(CO)n1C; > 100 µM (inactive)
COc1ccc2c(c1)C=C(C(C)(C)C)NS2(=O)=O; > 100 µM (inactive)
CC1=C(C(=O)Nc2ccccc2C)C(/C=C/c2ccccc2)C(C(=O)Nc2ccccc2C)=C(C)N1; > 100 µM (inactive)
CCCc1c(C(=O)OCC)[nH]c(C(=O)CCC(=O)c2[nH]c(C(=O)OCC)c(CCC)c2C(=O)OCC)c1C(=O)OCC; > 100 µM (inactive)
Cc1cc(-c2[nH]c(C(=O)O)cc2I)on1; 29.2 µM (inactive)
COc1ccc(/C=C2\CCC(CNc3ccc(Br)cc3)C2=O)cc1 (stereo not given); > 100 µM (inactive)
O=C1C(NCCF)=C(Cl)C(=O)c2ncccc21; 2.04 µM (inactive)
CCOC(=O)C1S/C(=N\c2ccc(OC)c(OC)c2)N=C1C (stereo not given); 40.2 µM (inactive)
O=C1C=CC(=O)c2c1c1c(c3c2C2c4ccccc4C3c3ccccc32)C2c3ccccc3C1c1ccccc12; 6.55 µM (inactive)
CCOP1(=O)CC(C)=C(Cl)C(O)C1 (stereo not given); > 100 µM (inactive)

IN: Entry under review: "COc1cc(S(=O)(=O)Nc2nc(-c3ccc(/N=C/c4cccs4)cc3)cs2)ccc1Cl" . Reported GI50?
OUT: > 100 µM (inactive)

IN: Entry under review: "Cc1ccc2[nH]c3[nH]c(=O)[nH]c(=O)c3c2c1" . Reported GI50?
OUT: > 100 µM (inactive)

IN: Entry under review: "CC(C)(c1ccc(C=O)o1)c1ccc(C(C)(C)c2ccc(C=O)o2)o1" . Reported GI50?
OUT: > 100 µM (inactive)

IN: Entry under review: "Cc1nnc(Nc2ccccc2)o1" . Reported GI50?
OUT: > 100 µM (inactive)

IN: Entry under review: "C=C(CN(C)C)C(=O)c1ccccc1" . Reported GI50?
OUT: 16.5 µM (inactive)

IN: Entry under review: C=C1CC2OC2(C(=O)O[C@H]2CCC3[C@@H]4CCC5=CC(=O)CC[C@]5(C)C4CC[C@@]32C)C1=O (stereo not given in full) . Reported GI50?
OUT: 19.6 µM (inactive)

IN: Entry under review: "O=C(c1ccc(Cl)c(Cl)c1)N(C(=O)N1CCN(c2ccccc2)CC1)S(=O)(=O)c1ccccc1" . Reported GI50?
OUT: 26.9 µM (inactive)

IN: Entry under review: O=C1/C=C(/c2ccc(O)cc2)[C@@H](OC2OC(CO)C(O)C(O)C2O)Cc2ccc(O)cc2O1.O=C1/C=C(/c2ccc(O)cc2)[C@H](O)Cc2ccc(O[C@@H]3OC(CO)C(O)C(O)C3O)cc2O1 (stereo not given in full) . Reported GI50?
OUT: > 100 µM (inactive)

----------
Overview of recorded GI50 for various compounds
System: UO-31
Test: NCI tumour cell line growth inhibition, 48 h
Calls of active or inactive are those of the source. No stated cut-off is given here; in the data, active = GI50 up to about 1.1 µM and inactive = higher.

Field: example entries. Status: answers known.
CCCc1cn2c(/C=N/NC(=N)N)c(-c3cccc([N+](=O)[O-])c3)nc2s1; 1.9 µM (inactive)
COc1cc(-c2cc(=O)c3c(O)c(CC=C(C)C)c(O)cc3o2)ccc1O; 33.5 µM (inactive)
CC(=O)Nc1cc2c(s1)CCC1CC(=O)NN=C21 (stereo not drawn); > 100 µM (inactive)

IN: Entry under review: "CC(C)(C)c1cc(CCC(=O)Nc2ccc(Cl)cc2)nc(NC#N)n1" . Reported GI50?
OUT: > 100 µM (inactive)

IN: Entry under review: CCOc1cn(C2CC(O)C(CO)O2)c(=O)[nH]c1=O (stereo not drawn) . Reported GI50?
OUT: > 100 µM (inactive)

IN: Entry under review: "CCCCCCCCCc1cc(=O)c2c(O)cccc2o1" . Reported GI50?
OUT: 37.1 µM (inactive)

IN: Entry under review: "COc1cc(OC)cc(-c2cc(O)c3cc4c(cc3n2)OCO4)c1" . Reported GI50?
OUT: 1.22 µM (inactive)

IN: Entry under review: "CCOC(=O)Nc1cc2nnc(-c3ccccc3)nc2c(N)n1" . Reported GI50?
OUT: 27.9 µM (inactive)

IN: Entry under review: "CCOC(=O)c1c(NC(=O)c2ccccc2)c(C#N)c2n1CCCCC2" . Reported GI50?
OUT: > 100 µM (inactive)

IN: Entry under review: CC(C(=O)N1C(=O)N(C(=O)C(C)C(O)c2ccccc2)C(c2ccccc2)C1c1ccccc1)C(O)c1ccccc1 (stereo not drawn) . Reported GI50?
OUT: 5.33 µM (inactive)

IN: Entry under review: C=CC1(CBr)CCC(C(C)(C)Br)O1 (stereo not drawn) . Reported GI50?
OUT: 12.7 µM (inactive)

IN: Entry under review: O=C1CCc2cc3c(cc21)C(C(=O)O)CC3 (stereo not drawn) . Reported GI50?
OUT: > 100 µM (inactive)

IN: Entry under review: CN(C)CCC(=O)N1CCc2c([nH]c3ccccc23)C1c1cccnc1 (stereo not drawn) . Reported GI50?
OUT: 41.6 µM (inactive)
